Taken from PubChem BioAssay (NCI).

Tested on: RXF 393 renal
Experiment: NCI tumour cell line growth inhibition, 48 h
Please respond with reported TGI for every item in the list.

{"compound": "CCC1CC(=O)N(SCC(N)C(=O)O)C1=O (stereo unspecified)", "experimental-result": "> 100 µM"}

Below are 3 compounds. Give each one its TGI.
1. N#CC(C#N)=C(N)/C(C#N)=C/c1cc(O)c(O)c(Br)c1
2. O=C1C2CCC(C2)C12CC1(c3ccccc3)C(=O)c3ccccc3N1O2 (stereo unspecified)
3. C#COc1cccc(Nc2ncnc3ncc(NC(=O)CCl)cc23)c1

Response:
1: > 100 µM; 2: > 100 µM; 3: > 62.5 µM

Below are 2 compounds. Give each one its TGI.
1. O=P1(Oc2ccc(Cl)cc2)OCCS1 (stereo unspecified)
2. COC(=O)c1ccc([N+](=O)[O-])c(O)c1

Response:
1: > 100 µM; 2: > 100 µM
